# System: M14 melanoma
# test.summary: NCI-60 one-dose screen, 48 h
# conditions: 10 µM unless noted
This is part of a sample that, as a whole, favours compounds with a hit. Of some 83,000 tested, about 20% had one in any assay. Activity calls are given as the source filed them. The calls were made as follows: active = growth percent below 10; inactive = the rest.
Allowed answers: Y for active, N for inactive

Would you mind telling me which call this test gave CCCC(OC(C)=O)c1ccc2c(c1)OCO2 (centres undefined) ?
N

# fetch the recorded call for COc1ccc(C)cc1NC(=O)SC(C)C here
N

Assay result, entry O=C(CCl)Nc1ccccc1SCc1cc(Cl)cc2c1OCOC2 — outcome?
N

# outcome recorded in this test, key = O=[n+]1ccn([O-])c2ccccc21
N

Write down the call the test reported for this compound. Item: ClCC(Cl)[C@@H]1CC2C=CC1C2 (some centres undefined)
N

Please indicate how the test categorized NNc1ncccn1 .
N

For this compound, state the assay outcome: NNc1ncnc2nc[nH]c12
N

Dear all, I need the recorded test outcome for CCOC(=O)N[C@H]1CCc2cc(OC)c(OC)c(OC)c2-c2ccc(SC)c(=O)cc21 , thank you.
Y

What was the test verdict on CCOC(=O)CO ?
N

Could you please tell me the result logged for CCCCNc1ccc(-c2ccc(NCCCC)cc2)cc1 in this assay?
N

Test call for this compound, please: C#CC(O)c1ccccc1 (centres undefined)
N

// param item: CC(c1ccccc1)N1C(=O)CSC1=S (centres undefined) ; yields the recorded call
N

Would you mind telling me which call this test gave O=C(NCc1ccccc1)c1cccc([N+](=O)[O-])c1 ?
N

Please share the test call associated with CCOC(=O)CNC .
N
